The measurements presented in this section are drawn from patent US20210130452A1.

Tested Target: T1, human IL-17F (human, UniProt Q96PD4 31-163, biotinylated with Sulfo-NHS-LC-Biotin in the AlphaScreen assays only)
T1 sequence: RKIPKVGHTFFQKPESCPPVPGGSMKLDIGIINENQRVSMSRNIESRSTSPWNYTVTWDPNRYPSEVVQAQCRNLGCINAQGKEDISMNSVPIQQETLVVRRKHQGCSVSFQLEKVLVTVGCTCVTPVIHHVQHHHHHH
Assay Procedure: cell-based or functional assay
Reported IL-17F-induced IL-6 production in HT-1080 cells, IC50 is given for each of the following binders.
Experimental Endpoint: IL-17F-induced IL-6 production in HT-1080 cells, IC50 (µM)

Binder	Unit Info	Value Observed
12A09 (VHH, Class 3 Nanobody (anti-IL-17F); not shown: c-myc, His6 tag) VHH: EVQLVESGGGLVQPGGSLRLSCAASGFTFSSYRMAWVRQAPGKGLEWVSSTSTGGEMTNYADSVKGRFTISRDNAKNTLHLQMNSLKPEDTALYYCAAGTSAGHWSTGGQGTQVTVSS	µM	0.105
08A08 (VHH, Class 3 Nanobody (anti-IL-17F); not shown: c-myc, His6 tag) VHH: EVQLVESGGGLVQAGGSLRLSCAASGRTFRPYRMGWFRRAPGKAREFVTLISWSSGRTSYADSVKGRFTISRDSAKNAVYLQMDNLKPEDTAVYFCAVDLSGDAVYDSWGQGTQVTVSS	µM	0.206
13E02 (VHH, Class 4 Nanobody (cross-reactive: anti-IL-17A, IL-17F and IL-17A/F); also called IL17MS13E02; not shown: c-myc, His6 tag) VHH: EVQLVESGGGLVQAGGSLRLSCAASGRTYDAMGWLRQAPGKEREFVAAISGSGDDTYYADSVKGRFTISKDNAGITMYLQMNSLKPEDTAVYYCATRRGLYYVWDSNDYENWGQGTQVTVSS	µM	0.104
10A04 (VHH, Class 4 Nanobody (cross-reactive: anti-IL-17A, IL-17F and IL-17A/F); not shown: c-myc, His6 tag) VHH: EVQLVESGGGLVQPGGSLRLSCAASGFTFSSYWMYWVRQAPGKGLEWISALAPGGGNRYYAESVNGRFTISRDNAKNSLYLQMNSLKSEDTAVYYCAKDHNVGYRTGEYDYGGQGTQVTVSS	µM	0.112
13B03 (VHH, Class 4 Nanobody (cross-reactive: anti-IL-17A, IL-17F and IL-17A/F); also called IL17MS13B03; not shown: c-myc, His6 tag) VHH: EVQLVESGGGSVQAGDSLRLSCAASGRANSINWFGWFRQTPGKEREFVAGIRWSDAYTEYANSVKGRFTISRDNAKNTVDLQMDSLKPEDTAVYYCVLDLSTVRYWGQGTQVTVSS	µM	0.149
16A04 (VHH, Class 3 Nanobody (anti-IL-17F); also called IL17MS16A04; not shown: c-myc, His6 tag) VHH: EVQLVESGGGLVQAGGSLRLSCAASGRTFSSYVVGWFRQAPGKEREFIGAISGSGDSIYYAVSEKDRFTISRDNGKNTLYLQMSSLKAEDTAVYYCTADQEFGYLRFGRSEYWGQGTQVTVSS	µM	0.112
